Where these numbers come from: paper PMC5540273

Tested on: DDR2
Settings: concentration: 1 μM, replicates: in singlicate; n = 1;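 also: KINOMEscan kinase panel screen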
Readout: %Inh (%)

>>> value_reported("Oc1ccc2ncnc(Nc3ccc(OCc4ccccc4)cc3)c2c1")
7
>>> value_reported("Nc1n[nH]c2nnc(-c3ccccc3)cc12")
7
>>> value_reported("Cc1cc(N2CCC(NS(=O)(=O)c3ccc(F)cc3)CC2)nc(Nc2cccc(C#N)c2)n1.O=C(O)C(F)(F)F")
7

---

Recorded %Inh values for a group of compounds are listed next.
Test system: PDPK1
Settings: concentration: 1 μM, replicates: in singlicate; n = 1
Readout: %Inh

>>> value_reported("COC(=O)c1c(-c2ccccc2)c2cc(Cl)ccc2c(=O)n1Cc1ccc(S(C)(=O)=O)cc1")
"16%"
>>> value_reported("O=C(Nc1ccccc1F)NC1CCN(c2ccnc(Nc3ccc(F)cc3)n2)C1 (centres unmarked) [GSK1379722]")
"14%"
>>> value_reported("CS(=O)(=O)CCNCc1ccc(-c2ccc3ncnc(Nc4ccc(OCc5ccccc5)c(Cl)c4)c3c2)o1.Cl [GW574783]")
"17%"
>>> value_reported("Cn1ccc2ncnc(Oc3ccc(NC(=O)Nc4cccnc4)c(Cl)c3)c21")
"0%"
>>> value_reported("COC(=O)c1cccc(NC(=O)NCCNc2ccnc(Nc3ccc(F)cc3)n2)c1 [GSK1379883]")
"5%"
>>> value_reported("O=C(NCCCN1CCCC1=O)c1cnc(NCc2cc(Cl)ccc2Cl)nc1NC1CCNCC1")
"7%"
>>> value_reported("FC(F)(F)c1ccc(-c2nn3ncccc3c2-c2ccnc(Nc3cccc(C(F)(F)F)c3)n2)cc1 [GW828205]")
"0%"
>>> value_reported("COc1ccc(-c2oc3ncnc(N)c3c2-c2ccc(OC)cc2)cc1 [SB-589132]")
"0%"
>>> value_reported("FC(F)(F)c1cc(Nc2nccc(-c3c(-c4ccc(Cl)cc4)nn4ncccc34)n2)ccc1Cl [GW829351]")
"0%"
>>> value_reported("Nc1nc(-c2cccnc2)c(-c2ccnc3ccccc23)s1 [GW684083]")
"0%"
>>> value_reported("Cl.O=S(=O)(c1cccc(F)c1)c1ccc(Nc2ncnc3cc(Br)sc23)cc1Cl [GSK306886]")
"0%"
>>> value_reported("CSc1ccc(NC2=C(c3ccccc3Cl)C(=O)NC2=O)cc1 [SB-342411]")
"80%"
>>> value_reported("Fc1cccc(COc2ccc(Nc3ncnc4nn5ccccc5c34)cc2Cl)c1 [GW689066]")
"0%"
>>> value_reported("CNc1nccc(-c2c(-c3ccc(F)cc3)ncn2C2CCN(C)CC2)n1 [SB-222903]")
"0%"
>>> value_reported("O=C(Nc1ccccc1)Nc1ccc(Oc2ccc3nccn3n2)cc1")
"0%"
>>> value_reported("CS(=O)(=O)CCNCc1nc(-c2ccc3ncnc(Nc4ccc(OCc5cccc(F)c5)c(Cl)c4)c3c2)cs1.Cl [GW583340]")
"0%"
>>> value_reported("C[C@@H]1CCN(C(=O)CO)C[C@@H]1N(C)c1ncnc2[nH]ccc12")
"0%"
>>> value_reported("Cl.Cl.c1ccc(-c2cc3ccncc3cc2OC2CCNCC2)cc1 [GSK1122999]")
"0%"
>>> value_reported("CC(C)(C)OC(=O)NC1CCCN(c2cc(-c3ccc4c(N)n[nH]c4c3)nc(N)n2)C1 (centres unmarked) [GSK2286096]")
"84%"
>>> value_reported("OCCOCCn1ccc2ncnc(Nc3ccc(Oc4cccc(Cl)c4)c(Cl)c3)c21")
"13%"
>>> value_reported("Nc1nc(-c2ccc3c(N)n[nH]c3c2)cc(N2CCCCC2)n1 [GSK2228768]")
"94.6%"
>>> value_reported("CN1c2ccc(-c3ccc(C(=O)NCCO)cc3)cc2-c2[nH]ncc2S1(=O)=O")
"17%"
>>> value_reported("Cc1cccc(-c2nc(Nc3ccc4[nH]nnc4c3)c3ccccc3n2)n1 [GW867587]")
"0%"
>>> value_reported("Nc1nccc2scc(-c3ccc4c(c3)CCN4C(=O)Cc3cc(F)ccc3F)c12 [GSK2587663]")
"0%"
>>> value_reported("Cn1cc(-c2ccc3c(c2)CCN3C(=O)Cc2cccc(C(F)(F)F)c2)c2c(N)ncnc21 [GSK2606414]")
"6%"
>>> value_reported("CC(=O)Nc1n[nH]c2ncc(-c3ccccc3)cc12 [SB-548492]")
"0%"
>>> value_reported("Cn1ccc2ncnc(Nc3ccc(Oc4cccc(Cl)c4)c(Cl)c3)c21")
"22%"
>>> value_reported("C[C@H]1CC[C@@H](C(=O)Nc2ccccc2)CN1c1cc(-c2ccc3c(N)n[nH]c3c2)nc(N)n1 [GSK2283293]")
"25%"
>>> value_reported("Oc1ccc2ncnc(Nc3ccc(OCc4ccccc4)cc3)c2c1 [GI262866]")
"0%"
